tested on: Zinnia elegans Jacq.; assay: Bioassay of herbicidal activity in greenhouse (further screening); format: in vivo; details: post-emergence; dose 30.0 g a.i./hm^2
Please go through the items and note down their Growth inhibition rate, Post-emergence treatment, Zinnia elegans Jacq..
Write the number in % without appending the unit.

Query: Growth inhibition rate, Post-emergence treatment, Zinnia elegans Jacq.; subject: CCCCOC(=O)C1(C)CC(c2cc(-n3c(=O)cc(C(F)(F)F)n(C)c3=O)c(F)cc2Cl)=NO1 (stereo not shown) [Compound 8] 95

Query: Growth inhibition rate, Post-emergence treatment, Zinnia elegans Jacq.; subject: Cn1c(C(F)(F)F)cc(=O)n(-c2cc(C3=NOC(C)(C(=O)OCC(F)(F)F)C3)c(Cl)cc2F)c1=O (stereo not shown) [Compound 396] 75

Query: Growth inhibition rate, Post-emergence treatment, Zinnia elegans Jacq.; subject: CCOC(=O)C1(C)CC(c2cc(-n3c(=O)cc(C(F)(F)F)n(C)c3=O)c(F)cc2Cl)=NO1 (stereo not shown) [Compound 6] 100

Query: Growth inhibition rate, Post-emergence treatment, Zinnia elegans Jacq.; subject: COCCOC(=O)C1(C)CC(c2cc(-n3c(=O)cc(C(F)(F)F)n(C)c3=O)c(F)cc2Cl)=NO1 (stereo not shown) [Compound 16] 100

Query: Growth inhibition rate, Post-emergence treatment, Zinnia elegans Jacq.; subject: COC(=O)C1(C)CC(c2cc(-n3c(=O)cc(C(F)(F)F)n(C)c3=O)c(F)cc2Cl)=NO1 (stereo not shown) [Compound 5] 98

Query: Growth inhibition rate, Post-emergence treatment, Zinnia elegans Jacq.; subject: CC(C)OC(=O)C1(C)CC(c2cc(-n3c(=O)cc(C(F)(F)F)n(C)c3=O)c(F)cc2Cl)=NO1 (stereo not shown) [Compound 10] 100

Query: Growth inhibition rate, Post-emergence treatment, Zinnia elegans Jacq.; subject: CC(=O)OCCOC(=O)C1(C)CC(c2cc(-n3c(=O)cc(C(F)(F)F)n(C)c3=O)c(F)cc2Cl)=NO1 (stereo not shown) [Compound 17] 65
